Each entry below carries its reported pIC50.
TESTED_ON: Muscarinic acetylcholine receptor M3 (Homo sapiens, UniProt P20309)
Sequence (P20309 whole entry): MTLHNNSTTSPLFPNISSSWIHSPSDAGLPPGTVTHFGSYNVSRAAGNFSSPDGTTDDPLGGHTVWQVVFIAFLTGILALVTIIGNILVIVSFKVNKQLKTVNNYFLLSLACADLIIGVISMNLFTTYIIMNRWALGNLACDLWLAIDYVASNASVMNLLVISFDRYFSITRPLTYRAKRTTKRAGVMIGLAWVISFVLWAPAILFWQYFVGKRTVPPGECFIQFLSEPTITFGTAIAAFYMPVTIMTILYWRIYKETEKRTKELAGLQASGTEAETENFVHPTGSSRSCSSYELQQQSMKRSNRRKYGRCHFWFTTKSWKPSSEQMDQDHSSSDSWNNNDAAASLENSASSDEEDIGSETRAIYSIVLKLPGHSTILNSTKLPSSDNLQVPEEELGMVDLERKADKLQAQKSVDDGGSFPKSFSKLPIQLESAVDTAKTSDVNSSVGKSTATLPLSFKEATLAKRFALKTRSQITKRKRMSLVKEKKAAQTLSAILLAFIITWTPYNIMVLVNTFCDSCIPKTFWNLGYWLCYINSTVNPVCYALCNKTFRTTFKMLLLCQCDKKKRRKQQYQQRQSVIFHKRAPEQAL
PROCEDURE_DETAILS: Antagonist activity at human muscarinic M3 receptor expressed in CHO cells assessed as inhibition of acetylcholine-induced calcium mobilization by FLIPR assay
pIC50: −log10 of the molar value.
OBSERVABLE: pIC50

CC[N+](CC)(CCNC(=O)[C@H](Cc1ccc(O)cc1)NC(=O)Nc1ccc(C(=O)OC(C)C)cc1)Cc1ccc(Cl)cc1 ... 6.65
CC(C)OC(=O)c1ccc(NC(=O)N[C@@H](Cc2ccc(O)cc2)C(=O)NCC[N+]2(Cc3ccc(Cl)cc3)CCCCC2)cc1 ... 7.48
CC(C)OC(=O)c1ccc(NC(=O)N[C@@H](Cc2ccc(O)cc2)C(=O)NCC[N+]2(Cc3ccc(Cl)cc3)CCCC2)cc1 ... 7.35
CC(C)OC(=O)c1ccc(NC(=O)N[C@@H](Cc2ccc(O)cc2)C(=O)NCC[N+](C)(C)C23CC4CC(CC(C4)C2)C3)cc1 ... 8.21
CC(C)OC(=O)c1ccc(NC(=O)N[C@@H](Cc2ccc(O)cc2)C(=O)NCCC[N+](C)(C)Cc2ccc3ccccc3c2)cc1 ... 6.38
CC[N+]1(C2CCN(C(=O)[C@H](Cc3ccc(O)cc3)NC(=O)Nc3ccc(C(=O)OC(C)C)cc3)CC2)CCCC1 ... 6.24
CC(C)OC(=O)c1ccc(NC(=O)N[C@@H](Cc2ccc(O)cc2)C(=O)N2CCC[C@H]([N+](C)(C)Cc3ccc(Cl)cc3)C2)cc1 ... 7.34
CC(C)OC(=O)c1ccc(NC(=O)N[C@@H](Cc2ccc(O)cc2)C(=O)NCC[N+](C)(C(C)C)C(C)C)cc1 ... 6.63
CC(C)OC(=O)c1ccc(NC(=O)N[C@@H](Cc2ccc(O)cc2)C(=O)NCC[N+](C)(Cc2ccc(Cl)cc2)Cc2ccc(Cl)cc2)cc1 ... 7.15
CC(C)OC(=O)c1ccc(NC(=O)N[C@@H](Cc2ccc(O)cc2)C(=O)N2CCC[C@@H]([N+](C)(C)Cc3ccc(Cl)cc3)C2)cc1 ... 7.88
CC(C)OC(=O)c1ccc(NC(=O)N[C@@H](Cc2ccc(O)cc2)C(=O)N2CC[N+](C)(CC3CCCCC3)CC2)cc1 ... 7.30
CC(C)OC(=O)c1ccc(NC(=O)N[C@@H](Cc2ccc(O)cc2)C(=O)NCC[N+]2(C)CCCCCC2)cc1 ... 6.80
CC(C)OC(=O)c1ccc(NC(=O)N[C@@H](Cc2ccc(O)cc2)C(=O)NCCC[N+](C)(C)Cc2ccc(Cl)cc2)cc1 ... 6.70
CC(C)OC(=O)c1ccc(NC(=O)N[C@@H](Cc2ccc(O)cc2)C(=O)N(C)Cc2n(C)cc[n+]2Cc2ccc(Cl)cc2)cc1 ... 6.41
CC(C)OC(=O)c1ccc(NC(=O)N[C@@H](Cc2ccc(O)cc2)C(=O)NCC[N+](C)(Cc2ccc3ccccc3c2)Cc2ccc3ccccc3c2)cc1 ... 7.09
CC(C)OC(=O)c1ccc(NC(=O)N[C@@H](Cc2ccc(O)cc2)C(=O)NCC[N+](C)(C)Cc2ccc(Cl)cc2)cc1 ... 6.85
CC(C)OC(=O)c1ccc(NC(=O)N[C@@H](Cc2ccc(O)cc2)C(=O)NCc2n(Cc3ccc(Cl)cc3)cc[n+]2Cc2ccc(Cl)cc2)cc1 ... 7.28
CC(C)OC(=O)c1ccc(NC(=O)N[C@@H](Cc2ccc(O)cc2)C(=O)N2CCC([N+]3(Cc4ccc(Cl)cc4)CCCC3)CC2)cc1 ... 7.16
CC(C)OC(=O)c1ccc(NC(=O)N[C@@H](Cc2ccc(O)cc2)C(=O)N2CC[N+](C)(Cc3ccc4c(c3)OCO4)CC2)cc1 ... 7.99
CC(C)OC(=O)c1ccc(NC(=O)N[C@@H](Cc2ccc(O)cc2)C(=O)N2CC[N+](Cc3ccc(Cl)cc3)(C(C)C)CC2)cc1 ... 7.56

###

TESTED_ON: UniProt P11229
Sequence (P11229 whole entry): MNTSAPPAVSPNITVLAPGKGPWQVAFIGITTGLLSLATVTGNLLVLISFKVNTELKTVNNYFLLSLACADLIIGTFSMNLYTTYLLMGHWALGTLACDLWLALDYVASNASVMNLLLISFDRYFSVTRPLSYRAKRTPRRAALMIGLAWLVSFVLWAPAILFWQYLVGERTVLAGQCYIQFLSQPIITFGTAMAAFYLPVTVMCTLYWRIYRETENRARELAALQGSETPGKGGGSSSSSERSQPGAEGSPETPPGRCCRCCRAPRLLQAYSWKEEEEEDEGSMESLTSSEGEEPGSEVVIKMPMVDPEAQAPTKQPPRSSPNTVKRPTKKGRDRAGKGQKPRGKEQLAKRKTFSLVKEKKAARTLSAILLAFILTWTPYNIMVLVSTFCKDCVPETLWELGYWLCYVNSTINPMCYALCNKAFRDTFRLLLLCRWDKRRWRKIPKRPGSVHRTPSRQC
PROCEDURE_DETAILS: Antagonist activity at human muscarinic M1 receptor expressed in CHO cells assessed as inhibition of acetylcholine-induced calcium mobilization by FLIPR assay
Type: functional, cell-based
OBSERVABLE: IC50 (nM)

CC(C)OC(=O)c1ccc(NC(=O)N[C@@H](Cc2ccc(O)cc2)C(=O)NCC(C)(C)C[N+](C)(C)Cc2ccc(Cl)cc2)cc1 ... 476
CC(C)OC(=O)c1ccc(NC(=O)N[C@@H](Cc2ccc(O)cc2)C(=O)N2CCC([N+]3(Cc4ccc(Cl)cc4)CCCC3)CC2)cc1 ... 882
CC(C)OC(=O)c1ccc(NC(=O)N[C@@H](Cc2ccc(O)cc2)C(=O)N2CCC[C@@H]([N+](C)(C)Cc3ccc(Cl)cc3)C2)cc1 ... 1900
CC(C)OC(=O)c1ccc(NC(=O)N[C@@H](Cc2ccc(O)cc2)C(=O)N2CC[N+](Cc3ccc(Cl)cc3)(CC3CCCCC3)CC2)cc1 ... 141
CC(C)OC(=O)c1ccc(NC(=O)N[C@@H](Cc2ccc(O)cc2)C(=O)NCCC[N+](C)(C)Cc2ccc3ccccc3c2)cc1 ... 734
CC(C)OC(=O)c1ccc(NC(=O)N[C@@H](Cc2ccc(O)cc2)C(=O)NCc2n(Cc3ccc(Cl)cc3)cc[n+]2Cc2ccc(Cl)cc2)cc1 ... 327
CC(C)OC(=O)c1ccc(NC(=O)N[C@@H](Cc2ccc(O)cc2)C(=O)NCC[N+](C)(Cc2ccc(Cl)cc2)Cc2ccc(Cl)cc2)cc1 ... 379
CC(C)OC(=O)c1ccc(NC(=O)N[C@@H](Cc2ccc(O)cc2)C(=O)NCC[N+]2(Cc3ccc(Cl)cc3)CCCCC2)cc1 ... 199
CC(C)OC(=O)c1ccc(NC(=O)N[C@@H](Cc2ccc(O)cc2)C(=O)NCC[N+](C)(Cc2ccc3ccccc3c2)Cc2ccc3ccccc3c2)cc1 ... 948
CC(C)OC(=O)c1ccc(NC(=O)N[C@@H](Cc2ccc(O)cc2)C(=O)N2CC[N+](Cc3ccc(Cl)cc3)(CC3CCc4ccccc4C3)CC2)cc1 (some centres undefined) ... 462

###

TESTED_ON: UniProt P08172
Sequence (P08172 whole entry): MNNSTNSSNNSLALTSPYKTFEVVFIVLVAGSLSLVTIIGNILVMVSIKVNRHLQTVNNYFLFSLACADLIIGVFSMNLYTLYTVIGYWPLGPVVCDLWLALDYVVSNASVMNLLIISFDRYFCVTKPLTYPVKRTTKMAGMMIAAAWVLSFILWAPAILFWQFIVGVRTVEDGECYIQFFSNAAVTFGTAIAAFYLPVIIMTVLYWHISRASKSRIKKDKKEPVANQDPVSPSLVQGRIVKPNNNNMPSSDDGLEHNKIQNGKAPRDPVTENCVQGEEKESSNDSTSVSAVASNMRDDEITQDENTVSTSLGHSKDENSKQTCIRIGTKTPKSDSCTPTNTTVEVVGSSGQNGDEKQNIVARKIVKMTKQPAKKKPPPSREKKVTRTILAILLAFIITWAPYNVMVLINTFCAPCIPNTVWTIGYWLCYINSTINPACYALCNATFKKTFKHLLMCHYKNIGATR
PROCEDURE_DETAILS: Antagonist activity at human muscarinic M2 receptor expressed in CHO cells assessed as inhibition of acetylcholine-induced calcium mobilization by FLIPR assay
Please use yes for IC50 under 100 nM and no for everything else, ties included.

CC(C)OC(=O)c1ccc(NC(=O)N[C@@H](Cc2ccc(O)cc2)C(=O)N2CC[N+](Cc3ccc(Cl)cc3)(CC3CCc4ccccc4C3)CC2)cc1 (some centres undefined) ... yes
CC(C)OC(=O)c1ccc(NC(=O)N[C@@H](Cc2ccc(O)cc2)C(=O)N2CCC([N+]3(Cc4ccc(Cl)cc4)CCCC3)CC2)cc1 ... yes
CC(C)OC(=O)c1ccc(NC(=O)N[C@@H](Cc2ccc(O)cc2)C(=O)NCC[N+](C)(Cc2ccc3ccccc3c2)Cc2ccc3ccccc3c2)cc1 ... yes
CC(C)OC(=O)c1ccc(NC(=O)N[C@@H](Cc2ccc(O)cc2)C(=O)NCC[N+](C)(C)Cc2ccc(Cl)cc2)cc1 ... no
CC(C)OC(=O)c1ccc(NC(=O)N[C@@H](Cc2ccc(O)cc2)C(=O)N2CC[N+](C)(Cc3ccc4c(c3)OCO4)CC2)cc1 ... no
CC(C)OC(=O)c1ccc(NC(=O)N[C@@H](Cc2ccc(O)cc2)C(=O)N(C)Cc2n(C)cc[n+]2Cc2ccc(Cl)cc2)cc1 ... no
CC(C)OC(=O)c1ccc(NC(=O)N[C@@H](Cc2ccc(O)cc2)C(=O)NCC[N+]2(Cc3ccc(Cl)cc3)CCCC2)cc1 ... no
CC(C)OC(=O)c1ccc(NC(=O)N[C@@H](Cc2ccc(O)cc2)C(=O)N2CC[N+](Cc3ccc(Cl)cc3)(CC3CCCCC3)CC2)cc1 ... yes
CC(C)OC(=O)c1ccc(NC(=O)N[C@@H](Cc2ccc(O)cc2)C(=O)N2CCC[C@@H]([N+](C)(C)Cc3ccc(Cl)cc3)C2)cc1 ... no
CC(C)OC(=O)c1ccc(NC(=O)N[C@@H](Cc2ccc(O)cc2)C(=O)NCC[N+](C)(Cc2ccc(Cl)cc2)Cc2ccc(Cl)cc2)cc1 ... no
CC(C)OC(=O)c1ccc(NC(=O)N[C@@H](Cc2ccc(O)cc2)C(=O)NCC[N+]2(Cc3ccc(Cl)cc3)CCCCC2)cc1 ... yes
CC(C)OC(=O)c1ccc(NC(=O)N[C@@H](Cc2ccc(O)cc2)C(=O)NCc2n(Cc3ccc(Cl)cc3)cc[n+]2Cc2ccc(Cl)cc2)cc1 ... no
CC(C)OC(=O)c1ccc(NC(=O)N[C@@H](Cc2ccc(O)cc2)C(=O)N2CC[N+](C)(CC3CCCCC3)CC2)cc1 ... no
